SYSTEM UNDER TEST: UniProtKB P05067
PROCEDURE SUMMARY: Th-T (thioflavin-T) assay of Aβ42 aggregation
Type: biochemical
CONDITION DETAILS: head suffix _10 (concentration 10); reading M67
Label rule, in plain words: Th-T fluorescence of Aβ42 (sheet Fig. 7a), mean of three wells of 2 and up is yes, under 2 is no.

See these solved cases before continuing.
C=C1CCC2C(C)(CCC=C(C)C)C(O)CCC2(C)C1Cc1c(OC)oc(CO)c(C)c1=O (centres unmarked)    yes
C=C1CC[C@@H]2[C@](C)(CC[C@H]3O[C@H](C=C(C)C)C[C@@]23C)[C@@H]1Cc1c(OC)oc(CO)c(C)c1=O    yes
C=C1CC[C@@H]2[C@](C)(CC[C@H]3O[C@H](C=C(C)C)C[C@@]23C)[C@@H]1Cc1c(OC)oc(CO)c(C(=O)OC)c1=O    no
C=C1CCC2C(C)(CCC=C(C)C)C(O)CCC2(C)C1Cc1c(OC)oc(CO)c(C(=O)OC)c1=O (centres unmarked)    no

Now look at this entry.
Determine whether this compound has Th-T fluorescence of Aβ42 (sheet Fig. 7a), mean of three wells no lower than 2: C=C1CCC2C(C)(CCC=C(C)C)C(O)CCC2(C)C1Cc1c(OC)oc(C)c(C(=O)OC)c1=O (centres unmarked)
yes

====

SYSTEM UNDER TEST: Aβ42 (Homo sapiens)
Sequence (P05067 672-713): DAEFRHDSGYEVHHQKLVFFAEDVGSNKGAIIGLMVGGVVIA
PROCEDURE SUMMARY: Th-T (thioflavin-T) assay of Aβ42 aggregation
Type: biochemical
CONDITION DETAILS: head suffix _20 (concentration 20); reading M74
Below, each entry is listed with its recorded Th-T fluorescence of Aβ42 (sheet Fig. 7a), mean of three wells.
// keep it numeric: no unit symbol after the value

C=C1CCC2C(C)(CCC=C(C)C)C(O)CCC2(C)C1Cc1c(OC)oc(C)c(C(=O)OC)c1=O (centres unmarked) [Compound 14]    1.9541
C=C1CC[C@@H]2[C@](C)(CC[C@H]3O[C@H](C=C(C)C)C[C@@]23C)[C@@H]1Cc1c(OC)oc(CO)c(C)c1=O [Compound 20]    3.387
C=C1CCC2C(C)(CCC=C(C)C)C(O)CCC2(C)C1Cc1c(OC)oc(CO)c(C)c1=O (centres unmarked) [Compound 12]    2.11
C=C1CC[C@@H]2[C@](C)(CC[C@H]3O[C@H](C=C(C)C)C[C@@]23C)[C@@H]1Cc1c(OC)oc(CO)c(C(=O)OC)c1=O [Compound 21]    0.3106

Shift focus to the following entry.
Entry under review: C=C1CCC2C(C)(CCC=C(C)C)C(O)CCC2(C)C1Cc1c(OC)oc(CO)c(C(=O)OC)c1=O (centres unmarked) [Compound 13] . Reported Th-T fluorescence of Aβ42 (sheet Fig. 7a), mean of three wells?
1.057

====

Test system: MAGI cells
PROCEDURE SUMMARY: cytotoxicity in the anti-HIV assay (CC50)
Type: cell-based
CONDITION DETAILS: single determinations
Below, each entry is listed with its recorded Cytotoxicity.

C=C1CC[C@H]2[C@]3(C)C[C@H](C=C(C)C)O[C@H]3CC[C@]2(C)[C@@H]1Cc1c(O)c(C)c(C)oc1=O    >10 µM
C=C1CC[C@H]2[C@]3(C)C[C@@H](C=C(C)C)O[C@H]3CC[C@]2(C)[C@@H]1Cc1c(OC)oc(CO)c(C)c1=O    >10 µM

Shift focus to the following entry.
Entry under review: C=C1CC[C@H]2[C@]3(C)C[C@H](C=C(C)C)O[C@H]3CC[C@]2(C)[C@@H]1Cc1c(OC)oc(CO)c(C)c1=O . Reported Cytotoxicity?
>10 µM
